- System: NCI-H1836
- PROCEDURE SUMMARY: Antiproliferative activity against human NCI-H1836 assessed as reduction in cell viability incubated for 48 hrs by CellTiter-Glo cell vaibility assay
- Assay type: functional, cell-based
- STUDY CONDITIONS: NCI-H1836, 48 h
ATTRIBUTE MEASURED: EC50 (nM)
Please state the figure in nM; there is no need to write the unit.

Consider the following illustrative entries.
compound="CC1(C)CCC(c2ccc(Cl)cc2)=C(CN2CCN(c3ccc(C(=O)NS(=O)(=O)c4ccc(N[C@H](CCN5CCOCC5)CSc5ccccc5)c(S(=O)(=O)C(F)(F)F)c4)cc3)CC2)C1 [NAVITOCLAX]" measurement_target=NCI-H1836 attribute_measured=EC50 assay_value=260
compound="CC1(C)CCC(CN2CCN(c3ccc(C(=O)NS(=O)(=O)c4ccc(NCC5CCOCC5)c([N+](=O)[O-])c4)c(Oc4cnc5[nH]ccc5c4)c3)CC2)=C(c2ccc(Cl)cc2)C1 [VENETOCLAX]" measurement_target=NCI-H1836 attribute_measured=EC50 assay_value=5000

Continue with the next compound.
Consider the compound CN(C)CC#Cc1ccc(OCCCc2sc(N3CCc4cccc(C(=O)Nc5nc6ccccc6s5)c4C3)nc2C(=O)O)c(F)c1 [A-1155463] and give its measured EC50.
15

These data points were gathered from ChEMBL document CHEMBL5705901.
